Test: Metabolic stability in liver microsomes test
Settings: human, pH 7.4
readout: half-life at 0.5 µM (min)
Respond with the bare value in min.

half-life at 0.5 µM lookup needed for CS(=O)(=O)c1ccc(-n2cc(Cl)c(OC3CCN(c4ncc(Cl)cn4)CC3)cc2=O)cc1F , thanks.
39

More entries:
half-life at 0.5 µM for CS(=O)(=O)c1ccc(-n2cc(Cl)c(OC3CCN(c4ncc(Cl)cn4)CC3)cc2=O)cc1 ?
57

====

Test: in vitro
Settings: human, microsomes, pH 7.4
half-life at 0.5 µM values by entry
Could you give me the number in h? Just the number is fine.

Examples with their reported half-life at 0.5 µM follow.
Please report the recorded half-life at 0.5 µM for CS(=O)(=O)c1ccc(-n2cc(Cl)c(OC3CCN(c4ncc(C(F)(F)F)cn4)CC3)cc2=O)c(F)c1 [Example 2] .
2.45

Which half-life at 0.5 µM is reported for this compound? CCS(=O)(=O)c1ccc(-n2cc(Cl)c(OC3CCN(c4ncc(Cl)cn4)CC3)cc2=O)cc1 [Example 10]
0.583

Entry CCS(=O)(=O)c1ccc(-n2cc(Cl)c(OC3CCN(c4ncc(Cl)cn4)CC3)cc2=O)c(F)c1 [Example 11] has what half-life at 0.5 µM?
0.85

Others:
Query: half-life at 0.5 µM; subject: CS(=O)(=O)c1ccc(-n2cc(Cl)c(OC3CCN(c4ncc(Cl)cn4)CC3)cc2=O)c(F)c1 [Example 5]
1.75

====

Target: human-mouse chimeric GPR119 (Homo sapiens, UniProt Q8TDV5, A235T/C313R/C323Y/E253K/F304I/F307L/G211A/G245S/H255C/K284R/L224V/L258Q/L288Q/L301F/P218V/P318T/Q252H/R262K/S214P/S219N/S228A/S309P/S322A/T217S/T239S/V227I/V300F)
Construct: the first 198 amino acids of human GPR119; the C-terminal 137 amino acids of the mouse receptor; expressed in transfected cells
Sequence (Q8TDV5 with tags, fused parts or gaps G211A/S214P/T217S/P218V/S219N/L224V/V227I/S228A/A235T/T239S/G245S/Q252H/E253K/H255C/L258Q/R262K/K284R/L288Q/V300F/L301F/F304I/F307L/S309P/C313R/P318T/S322A/C323Y): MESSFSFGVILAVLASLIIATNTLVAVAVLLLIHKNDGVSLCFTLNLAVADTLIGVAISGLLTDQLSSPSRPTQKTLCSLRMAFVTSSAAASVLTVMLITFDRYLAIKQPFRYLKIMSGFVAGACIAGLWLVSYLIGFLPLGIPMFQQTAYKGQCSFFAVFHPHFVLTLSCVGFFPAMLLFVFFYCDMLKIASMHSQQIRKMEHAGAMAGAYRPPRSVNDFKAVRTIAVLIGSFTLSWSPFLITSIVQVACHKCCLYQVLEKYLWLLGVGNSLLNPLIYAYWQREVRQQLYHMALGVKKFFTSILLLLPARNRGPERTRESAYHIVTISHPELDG
Test: Tet-inducible cAMP assay (cAMP accumulation, HTRF)
Assay type: cell-based
readout: pEC50
Scale: pEC50 equals -log10([C]), with [C] in mol/L.

I would be grateful if you could share the reported pEC50 for CS(=O)(=O)c1ccc(-n2cc(Cl)c(OC3CCN(c4ncc(Cl)cn4)CC3)cc2=O)cc1 [Example 4] .
8.30

Data request, read-out pEC50, for CS(=O)(=O)c1ccc(-n2cc(Cl)c(OC3CCN(c4ncc(C(F)(F)F)cn4)CC3)cc2=O)cc1F [Example 3]
8.15

Data request, read-out pEC50, for CS(=O)(=O)c1ccc(-n2cc(Cl)c(OC3CCN(c4ncc(C(F)(F)F)cn4)CC3)cc2=O)cc1 [Example 1]
8.10

Could you tell me which pEC50 is on file for CS(=O)(=O)c1ccc(-n2cc(Cl)c(OC3CCN(c4ncc(C(F)(F)F)cn4)CC3)cc2=O)c(F)c1 [Example 2] ?
7.92

Query: pEC50; subject: CS(=O)(=O)c1ccc(-n2cc(Cl)c(OC3CCN(c4ncc(Cl)cn4)CC3)cc2=O)cc1F [Example 6]
8.40

What pEC50 value was documented for this compound, CS(=O)(=O)c1ccc(-n2cc(Cl)c(OC3CCN(c4ncc(Cl)cn4)CC3)cc2=O)c(F)c1 [Example 5] ?
8.52

====

Assay: in vitro
Conditions: human, microsomes, pH 7.4
Reported half-life at 0.5 µM values follow for various compounds
# number then unit; no other words

Name the recorded half-life at 0.5 µM for CCS(=O)(=O)c1ccc(-n2cc(Cl)c(OC3CCN(c4ncc(C(F)(F)F)cn4)CC3)cc2=O)c(F)c1 .
2 h

More entries:
Fill blank: measured half-life at 0.5 µM of the compound CS(=O)(=O)c1ccc(-n2cc(Cl)c(OC3CCN(c4ncc(C(F)(F)F)cn4)CC3)cc2=O)cc1 is ____.
3 h

Value lookup for half-life at 0.5 µM; key = CCS(=O)(=O)c1ccc(-n2cc(Cl)c(OC3CCN(c4ncc(C(F)(F)F)cn4)CC3)cc2=O)cc1F
1.47 h

Which value of half-life at 0.5 µM has been reported for CS(=O)(=O)c1ccc(-n2cc(Cl)c(OC3CCN(c4ncc(C(F)(F)F)cn4)CC3)cc2=O)cc1F in the records?
1.8 h

====

Molecular target: human-mouse chimeric GPR119 (Homo sapiens, UniProt Q8TDV5, A235T/C313R/C323Y/E253K/F304I/F307L/G211A/G245S/H255C/K284R/L224V/L258Q/L288Q/L301F/P218V/P318T/Q252H/R262K/S214P/S219N/S228A/S309P/S322A/T217S/T239S/V227I/V300F)
Construct: the first 198 amino acids of human GPR119; the C-terminal 137 amino acids of the mouse receptor; expressed in transfected cells
Assay: Tet-inducible cAMP assay (cAMP accumulation, HTRF)
Type: cell-based
Settings: Flp-In-T-Rex-HEK293 cells expressing chimeric human/mouse GPR119; cAMP accumulation; read-out: GPR119 EC50
Protocol: The in vitro modulation of recombinant human GPR119 was determined as follows. A human-mouse chimeric GPR119 expression construct encoding 3 copies of the FLAG epitope tag, the first 198 amino acids of human GPR119 and the C-terminal 137 amino acids of the mouse receptor was cloned into a tetracycline inducible vector pcDNA5/FRT/TO (Invitrogen #V6520-20), which includes a hygromycin-resistance marker. […]
readout: pEC50
pEC50 (log units): -log10 of the concentration in mol/L.

Could you tell me which pEC50 is on file for CCS(=O)(=O)c1ccc(-n2cc(Cl)c(OC3CCN(c4ncc(Cl)cn4)CC3)cc2=O)c(F)c1 ?
8.22

***
Look up pEC50: CCS(=O)(=O)c1ccc(-n2cc(Cl)c(OC3CCN(c4ncc(C(F)(F)F)cn4)CC3)cc2=O)c(F)c1
8.10

Look up pEC50: CCS(=O)(=O)c1ccc(-n2cc(Cl)c(OC3CCN(c4ncc(Cl)cn4)CC3)cc2=O)cc1
8.70

Requested field: pEC50. Item: CCS(=O)(=O)c1ccc(-n2cc(Cl)c(OC3CCN(c4ncc(C(F)(F)F)cn4)CC3)cc2=O)cc1F
7.89

Attribution: patent US8415367B2
